Documented Cal. Rapa (Sediment) across a set of molecules
# assay: Rapamycin coating affinity testing: distribution between solid and liquid phases with surfactant in water (UV-Vis)
# Assay type: physicochemical
# measurement_context: 1:1 Surfactant to Rapa, 10x dilution; calculated from UV-Vis absorbance; in mg (unit assumed)
Number only, please.

INSERT INTO assay_data (molecule, result_number) VALUES
  ('CCCCCCCCCCCC[N+](C)(C)C.[Br-] [Dodecyltrimethylammonium Bromide, Dodecyltrimethyl Ammonium Bromide]', 1.65),
  ('CCCCCCCCCCCC[N+](C)(C)CCCCCCCCCCCC.[Br-] [DMAB, didodecyldimethylammonium bromide]', 1.23),
  ('CCCCCCCCCCCCCC[N+](C)(C)CCCCCCCCCCCCCC.[Br-] [Dimethylditetradecylammonium bromide, Dimethylditetradecyl Ammonium bromide]', 1.9),
  ('CCCC[N+](CCCC)(CCCC)CCCC.[I-] [Tetrabutylammonium iodide]', 1.97);

What value of Cal. Rapa (Sediment) has been recorded for this entry: CCCCCCCCCCCC[N+](CCCCCCCCCCCC)(CCCCCCCCCCCC)CCCCCCCCCCCC.[Br-] [Tetradodecylammoniumbromid, Tetradodecylammonium bromide] 1.51

# Cal. Rapa (Sediment) lookup, item CCCCCCCCCCCCCCCC[N+](C)(C)CC.[Br-] [Ethylhexadecyldimethylammonium Bromide] 1.37

====

# assay: Rapamycin coating affinity testing: distribution between solid and liquid phases with surfactant in water (UV-Vis)
# Format: physicochemical
# measurement_context: 10:1 Surfactant to Rapa, 6x dilution; calculated from UV-Vis absorbance; unit assumed
Decide by Cal. Rapa (Supernate): equal to or exceeding 0.8 mg means Fulfilled, less means Not fulfilled.

Some solved entries appear below for comparison.
INSERT INTO measurements (molecule, category) VALUES
  ('CCCC[N+](CCCC)(CCCC)CCCC.[I-] [Tetrabutylammonium iodide]', 'Not fulfilled'),
  ('CCCCCCCCCCCCCC[N+](C)(C)CCCCCCCCCCCCCC.[Br-] [Dimethylditetradecylammonium bromide, Dimethylditetradecyl Ammonium bromide]', 'Fulfilled'),
  ('CCCCCCCCCCCCCCCC[N+](C)(C)CC.[Br-] [Ethylhexadecyldimethylammonium Bromide]', 'Fulfilled'),
  ('CCCCCCCCCCCC[N+](CCCCCCCCCCCC)(CCCCCCCCCCCC)CCCCCCCCCCCC.[Br-] [Tetradodecylammoniumbromid, Tetradodecylammonium bromide]', 'Not fulfilled');

Here is the next item to consider.
Could you please find out whether CCCCCCCCCCCC[N+](C)(C)CCCCCCCCCCCC.[Br-] [DMAB, didodecyldimethylammonium bromide] has Cal. Rapa (Supernate) that meets 0.8 mg or exceeds it? Fulfilled

====

# assay: Sirolimus concentration in rabbit blood after inflation of two coated balloons per animal
# Format: in vivo
# measurement_context: rabbit, blood, other: coated balloon catheters inflated in iliac arteries, rabbit blood, 6 hr, two coated balloons per animal; single animals and Average; read-out: Post-Inflation Conc.
readout_name: concentration at 6 h (ng/mL)
Write down the numeric answer in ng/mL and omit the unit.

Entry "CO[C@H]1C[C@@H]2CC[C@@H](C)[C@@](O)(O2)C(=O)C(=O)N2CCCC[C@H]2C(=O)O[C@H]([C@H](C)C[C@@H]2CC[C@@H](O)[C@H](OC)C2)CC(=O)[C@H](C)/C=C(\C)[C@@H](O)[C@@H](OC)C(=O)[C@H](C)C[C@H](C)/C=C/C=C/C=C/1C" has what concentration at 6 h? 2.82

====

# assay: Rapamycin coating affinity testing: distribution between solid and liquid phases with surfactant in water (UV-Vis)
# Type: physicochemical
# measurement_context: 10:1 Surfactant to Rapa, 6x dilution; calculated from UV-Vis absorbance; in mg (unit assumed)
readout_name: Cal. Rapa (Sediment)
API note: the answer field is a bare number with no unit suffix.

INSERT INTO assay_data (molecule, result_number) VALUES
  ('CCCCCCCCCCCC[N+](C)(C)CCCCCCCCCCCC.[Br-] [DMAB, didodecyldimethylammonium bromide]', 1.23),
  ('CCCCCCCCCCCC[N+](CCCCCCCCCCCC)(CCCCCCCCCCCC)CCCCCCCCCCCC.[Br-] [Tetradodecylammoniumbromid, Tetradodecylammonium bromide]', 1.24),
  ('CCCCCCCCCCCC[N+](C)(C)C.[Br-] [Dodecyltrimethylammonium Bromide, Dodecyltrimethyl Ammonium Bromide]', 1.2),
  ('CCCC[N+](CCCC)(CCCC)CCCC.[I-] [Tetrabutylammonium iodide]', 1.07);

Now for another entry.
Cal. Rapa (Sediment) for CCCCCCCCCCCCCC[N+](C)(C)CCCCCCCCCCCCCC.[Br-] [Dimethylditetradecylammonium bromide, Dimethylditetradecyl Ammonium bromide] ? 0.85

====

# assay: Rapamycin coating affinity testing: distribution between solid and liquid phases with surfactant in water (UV-Vis)
# Type: physicochemical
# measurement_context: 1:1 Surfactant to Rapa, 10x dilution; calculated from UV-Vis absorbance; unit assumed
readout_name: Cal. Rapa (Supernate)

Known Cal. Rapa (Supernate) results, listed for orientation:
INSERT INTO measurements (compound, readout_name, result) VALUES
  ('CCCCCCCCCCCC[N+](CCCCCCCCCCCC)(CCCCCCCCCCCC)CCCCCCCCCCCC.[Br-] [Tetradodecylammoniumbromid, Tetradodecylammonium bromide]', 'Cal. Rapa (Supernate)', '0.25 mg'),
  ('CCCC[N+](CCCC)(CCCC)CCCC.[I-] [Tetrabutylammonium iodide]', 'Cal. Rapa (Supernate)', '0.6 mg');

# input for lookup
May I ask what Cal. Rapa (Supernate) has been recorded for CCCCCCCCCCCC[N+](C)(C)CCCCCCCCCCCC.[Br-] [DMAB, didodecyldimethylammonium bromide] ? 0.64 mg

====

# assay: Rapamycin coating affinity testing: distribution between solid and liquid phases with surfactant in water (UV-Vis)
# Type: physicochemical
# measurement_context: 1:1 Surfactant to Rapa, 10x dilution; calculated from UV-Vis absorbance; unit assumed
readout_name: Cal. Rapa (Supernate) (mg)
Give just the numeric value; mg need not be written.

What value of Cal. Rapa (Supernate) has been reported for the following molecule? CCCCCCCCCCCC[N+](C)(C)C.[Br-] [Dodecyltrimethylammonium Bromide, Dodecyltrimethyl Ammonium Bromide] 0.5

What value of Cal. Rapa (Supernate) has been reported for the following molecule? CCCCCCCCCCCCCCCC[N+](C)(C)CC.[Br-] [Ethylhexadecyldimethylammonium Bromide] 0.33

What value of measured Cal. Rapa (Supernate) is listed for CCCCCCCCCCCCCC[N+](C)(C)CCCCCCCCCCCCCC.[Br-] [Dimethylditetradecylammonium bromide, Dimethylditetradecyl Ammonium bromide] ? 0.59

====

# assay: Rapamycin coating affinity testing: distribution between solid and liquid phases with surfactant in water (UV-Vis)
# Assay type: physicochemical
# measurement_context: 10:1 Surfactant to Rapa, 6x dilution; percent recovery of initial rapamycin loading
readout_name: total (% of original) (%)
Number in %, nothing else.

INSERT INTO assay_data (molecule, unit_label, result_number) VALUES
  ('CCCC[N+](CCCC)(CCCC)CCCC.[I-] [Tetrabutylammonium iodide]', '%', 80.1),
  ('CCCCCCCCCCCC[N+](C)(C)CCCCCCCCCCCC.[Br-] [DMAB, didodecyldimethylammonium bromide]', '%', 107.1),
  ('CCCCCCCCCCCC[N+](CCCCCCCCCCCC)(CCCCCCCCCCCC)CCCCCCCCCCCC.[Br-] [Tetradodecylammoniumbromid, Tetradodecylammonium bromide]', '%', 73.1),
  ('CCCCCCCCCCCCCCCC[N+](C)(C)CC.[Br-] [Ethylhexadecyldimethylammonium Bromide]', '%', 59.6),
  ('CCCCCCCCCCCC[N+](C)(C)C.[Br-] [Dodecyltrimethylammonium Bromide, Dodecyltrimethyl Ammonium Bromide]', '%', 87.6);

Okay, next one:
Quick one: total (% of original) for CCCCCCCCCCCCCC[N+](C)(C)CCCCCCCCCCCCCC.[Br-] [Dimethylditetradecylammonium bromide, Dimethylditetradecyl Ammonium bromide] ? 110.2

====

# assay: Sirolimus concentration in rabbit blood after inflation of two coated balloons per animal
# Format: in vivo
# measurement_context: rabbit, whole blood, other: inflation of drug-coated balloons in iliac arteries, Est. Total Sirolimus in Blood Normalized to Human, 6 hr; based on 5 L of blood in the average human
readout_name: concentration at 6 h (ng/mL)
Numbers only here, please. The scale is ng/mL.

Endpoint output: concentration at 6 h of "CO[C@H]1C[C@@H]2CC[C@@H](C)[C@@](O)(O2)C(=O)C(=O)N2CCCC[C@H]2C(=O)O[C@H]([C@H](C)C[C@@H]2CC[C@@H](O)[C@H](OC)C2)CC(=O)[C@H](C)/C=C(\C)[C@@H](O)[C@@H](OC)C(=O)[C@H](C)C[C@H](C)/C=C/C=C/C=C/1C" . Value? 0.1

====

# assay: Rapamycin coating affinity testing: distribution between solid and liquid phases with surfactant in water (UV-Vis)
# Type: physicochemical
# measurement_context: 1:1 Surfactant to Rapa, 10x dilution; percent recovery of initial rapamycin loading
readout_name: total (% original) (%)
Respond numerically; units are % and should not be typed.

Below: 5 molecules and their reported total (% original).
INSERT INTO assay_data (molecule, readout_name, result_number) VALUES
  ('CCCCCCCCCCCCCCCC[N+](C)(C)CC.[Br-] [Ethylhexadecyldimethylammonium Bromide]', 'total (% original)', 89.5),
  ('CCCC[N+](CCCC)(CCCC)CCCC.[I-] [Tetrabutylammonium iodide]', 'total (% original)', 114.2),
  ('CCCCCCCCCCCC[N+](C)(C)CCCCCCCCCCCC.[Br-] [DMAB, didodecyldimethylammonium bromide]', 'total (% original)', 98.4),
  ('CCCCCCCCCCCC[N+](C)(C)C.[Br-] [Dodecyltrimethylammonium Bromide, Dodecyltrimethyl Ammonium Bromide]', 'total (% original)', 108.6),
  ('CCCCCCCCCCCCCC[N+](C)(C)CCCCCCCCCCCCCC.[Br-] [Dimethylditetradecylammonium bromide, Dimethylditetradecyl Ammonium bromide]', 'total (% original)', 113.2);

Now take the following molecule into account.
Form field: reported total (% original) of CCCCCCCCCCCC[N+](CCCCCCCCCCCC)(CCCCCCCCCCCC)CCCCCCCCCCCC.[Br-] [Tetradodecylammoniumbromid, Tetradodecylammonium bromide] 88.0
